tested on: Wnt/β-catenin pathway; experiment: luciferase-based reporter assay (SuperTopFlash) measuring Wnt/β-catenin-dependent transcriptional response, L-Wnt-STF cells; assay type: cell-based; settings: Mus musculus; Table 1; luciferase reporter of Wnt/β-catenin-dependent transcriptional response
Give measured pEC50 for each item. Keep answers brief.
Entry type: numeric. Quantity: pEC50, the -log10 of concentration in molar units.

Please supply the value of reported pEC50 for the item O=C(Nc1ccc(Cl)cc1Cl)c1ccc(N2C(=O)[C@@H]3[C@@H]4C=CC(C4)[C@@H]3C2=O)cc1 [Compound 18]
5.00

Please supply the value of reported pEC50 for the item Cc1ccc2cccnc2c1NC(=O)c1ccc(N2C(=O)[C@@H]3[C@@H]4C=CC(C4)[C@@H]3C2=O)cc1 [Compound 3]
6.10

Please supply the value of reported pEC50 for the item O=C(Nc1ccc(F)c(F)c1)c1ccc(N2C(=O)[C@@H]3[C@@H]4C=CC(C4)[C@@H]3C2=O)cc1 [Compound 22]
5.52

Please supply the value of reported pEC50 for the item O=C(Nc1cccc(C(F)(F)F)c1)c1ccc(N2C(=O)[C@@H]3[C@@H]4C=CC(C4)[C@@H]3C2=O)cc1 [Compound 27]
4.70

Please supply the value of reported pEC50 for the item O=C(Nc1ccc(F)cc1F)c1ccc(N2C(=O)[C@@H]3[C@@H]4C=CC(C4)[C@@H]3C2=O)cc1 [Compound 17]
5.05

Please supply the value of reported pEC50 for the item O=C(Nc1ccc(Cl)c(Cl)c1)c1ccc(N2C(=O)[C@@H]3[C@@H]4C=CC(C4)[C@@H]3C2=O)cc1 [Compound 23]
5.30

Please supply the value of reported pEC50 for the item O=C(Nc1ccc(Br)c(Br)c1)c1ccc(N2C(=O)[C@@H]3[C@@H]4C=CC(C4)[C@@H]3C2=O)cc1 [Compound 24]
5.00

Please supply the value of reported pEC50 for the item COc1ccccc1NC(=O)c1ccc(N2C(=O)[C@@H]3[C@@H]4C=CC(C4)[C@@H]3C2=O)cc1 [Compound 5]
6.00

Please supply the value of reported pEC50 for the item O=C(Nc1ccc(Cl)cc1)c1ccc(N2C(=O)[C@@H]3[C@@H]4C=CC(C4)[C@@H]3C2=O)cc1 [Compound 14]
5.52

----------
Give measured EC50 for each item. Keep answers brief.
tested on: Wnt/β-catenin pathway; experiment: luciferase-based reporter assay (SuperTopFlash) measuring Wnt/β-catenin-dependent transcriptional response, L-Wnt-STF cells; assay type: cell-based; conditions: Mus musculus; Table 1; luciferase reporter of Wnt/β-catenin-dependent transcriptional response

Please supply the value of reported EC50 for the item "O=C(NCc1cccnc1)c1ccc(N2C(=O)[C@@H]3[C@@H]4C=CC(C4)[C@@H]3C2=O)cc1"
> 25 µM

Please supply the value of reported EC50 for the item O=C(NC1CCCc2cccnc21)c1ccc(N2C(=O)[C@@H]3[C@@H]4C=CC(C4)[C@@H]3C2=O)cc1 (stereo partly drawn)
10 µM

Please supply the value of reported EC50 for the item "O=C(NCc1ccncc1)c1ccc(N2C(=O)[C@@H]3[C@@H]4C=CC(C4)[C@@H]3C2=O)cc1"
10 µM

Please supply the value of reported EC50 for the item "O=C(Nc1ccccc1C(F)(F)F)c1ccc(N2C(=O)[C@@H]3[C@@H]4C=CC(C4)[C@@H]3C2=O)cc1"
> 25 µM

Please supply the value of reported EC50 for the item "O=C(Nc1cccc(F)c1F)c1ccc(N2C(=O)[C@@H]3[C@@H]4C=CC(C4)[C@@H]3C2=O)cc1"
> 25 µM

Please supply the value of reported EC50 for the item "O=C(Nc1ccccc1F)c1ccc(N2C(=O)[C@@H]3[C@@H]4C=CC(C4)[C@@H]3C2=O)cc1"
> 25 µM
